Target: human PXR (Homo sapiens)
Sequence (O75469 1-434): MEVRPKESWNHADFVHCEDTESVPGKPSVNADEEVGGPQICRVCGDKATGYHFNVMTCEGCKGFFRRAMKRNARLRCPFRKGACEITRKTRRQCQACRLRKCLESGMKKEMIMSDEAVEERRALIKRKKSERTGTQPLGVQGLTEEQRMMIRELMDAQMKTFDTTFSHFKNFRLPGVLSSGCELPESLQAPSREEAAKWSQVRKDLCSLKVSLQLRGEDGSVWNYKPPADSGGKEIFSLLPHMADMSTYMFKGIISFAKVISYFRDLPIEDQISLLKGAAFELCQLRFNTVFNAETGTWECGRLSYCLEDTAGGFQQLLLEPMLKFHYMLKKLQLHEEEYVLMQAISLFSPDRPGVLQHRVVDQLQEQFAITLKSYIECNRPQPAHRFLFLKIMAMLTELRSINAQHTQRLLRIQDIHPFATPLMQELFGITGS
Assay: PXR activation luciferase reporter assay, human PXR in HepG2-NTCP cells
Conditions: -log(EC50), EC50 in molar units, activation of human PXR
OBSERVED PROPERTY: hPXR Activity

Cc1cc(O)cc2c1O[C@](C)(CCC[C@H](C)CCC[C@H](C)CCCC(C)C)CC2 ... 5.14
C[C@H](CCC(=O)O)[C@H]1CC[C@H]2[C@@H]3[C@H](O)C[C@H]4C[C@H](O)CC[C@]4(C)[C@H]3C[C@H](O)[C@]12C ... None
CC(=O)O[C@@H]1CC[C@@]2(C)[C@H](CC[C@@H]3[C@@H]2CC[C@]2(C)[C@@H]([C@H](C)CCC(=O)O)CC[C@@H]32)C1 [BI49, 5β-Cholanic acid-3α-acetate] ... 5.92
C[C@]12CC[C@H]3[C@@H](CCC4=CC(=O)CC[C@@]43C)[C@@H]1CC[C@H]2OS(=O)(=O)O [AN17, 4-Androsten-17α-sulfate-3-one] ... 5.47

###

Molecular target: UniProt A5WYG8
Sequence (A5WYG8 144-430): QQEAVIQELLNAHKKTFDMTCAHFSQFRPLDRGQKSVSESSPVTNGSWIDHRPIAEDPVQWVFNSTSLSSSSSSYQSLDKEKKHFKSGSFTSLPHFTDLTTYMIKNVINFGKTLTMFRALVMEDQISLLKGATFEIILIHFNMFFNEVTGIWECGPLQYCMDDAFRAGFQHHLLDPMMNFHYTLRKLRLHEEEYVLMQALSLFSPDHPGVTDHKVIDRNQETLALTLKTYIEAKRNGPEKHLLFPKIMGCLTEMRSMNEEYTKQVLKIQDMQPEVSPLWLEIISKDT
Conditions: -log(EC50), EC50 in molar units, activation of zebrafish PXR
OBSERVED PROPERTY: zfPXR Activity

CC(CCC[C@@H](C)[C@H]1CC[C@H]2[C@@H]3[C@H](O)C[C@@H]4C[C@H](O)CC[C@]4(C)[C@H]3C[C@H](O)[C@]12C)C(=O)NCCS(=O)(=O)O (stereo partly drawn) ... None
C[C@]12CC[C@@H](O[C@@H]3O[C@H](C(=O)O)[C@@H](O)[C@H](O)[C@H]3O)C[C@H]1CC[C@@H]1[C@@H]2CC[C@]2(C)C(=O)CC[C@@H]12 [AN18, 5β-Androstan-3α-glucosiduronate-17-one] ... None
C[C@H](CCC(=O)NCC(=O)O)[C@H]1CC[C@H]2[C@@H]3CC[C@@H]4C[C@H](OS(=O)(=O)O)CC[C@]4(C)[C@H]3CC[C@]12C ... None
Cc1c(O)cc2c(c1C)O[C@](C)(CCC[C@H](C)CCC[C@H](C)CCCC(C)C)CC2 ... None
C[C@H](CCCOS(=O)(=O)O)[C@H]1CC[C@H]2[C@@H]3[C@H](O)C[C@H]4CC(=O)CC[C@]4(C)[C@H]3C[C@H](O)[C@]12C [BI32, 5α-Cholan-7α,12α-diol-3-one-24-sulfate] ... None

So, C[C@H](O)[C@H]1CC[C@H]2[C@@H]3CC[C@@H]4C[C@H](O[C@@H]5O[C@H](C(=O)O)[C@@H](O)[C@H](O)[C@H]5O)CC[C@]4(C)[C@H]3CC[C@]12C [PR16, 5β-Pregnan-3α,20α-diol-3-glucosiduronate] ? Its zfPXR Activity was 4.78

Record C[C@]12CC[C@H]3[C@@H](CCC4=CC(=O)CC[C@@]43C)[C@@H]1CC[C@H]2OS(=O)(=O)O [AN17, 4-Androsten-17α-sulfate-3-one] . Reported zfPXR Activity: None

Summary for this molecule, C[C@@H](O)[C@H]1CC[C@H]2[C@@H]3CC[C@@H]4C[C@H](O)CC[C@]4(C)[C@H]3CC[C@]12C : zfPXR Activity is 5.95

The molecule identified as C[C@]12CC[C@@H](O)C[C@@H]1CC[C@@H]1[C@@H]2[C@@H](O)C[C@]2(C)[C@@H](C(=O)CO)CC[C@@H]12 registered its zfPXR Activity at None

For reference, reported zfPXR Activity for C[C@]12CC[C@@H](O)C[C@H]1CC[C@@H]1[C@@H]2[C@@H](O)C[C@@]2(C)[C@H]1CC[C@]2(O)[C@@H](O)CO stands at 3.95

zfPXR Activity for C[C@]12CC[C@@H]3c4ccc(OS(=O)(=O)O)cc4CC[C@H]3[C@@H]1CCC2=O [ES8, 1,3,5(10)-Estratrien-17-one-3-sulfate] is None

Short answer for C[C@H](CCC(=O)O)[C@H]1CC[C@H]2[C@@H]3CC[C@@H]4CC(=O)CC[C@]4(C)[C@H]3CC[C@]12C : zfPXR Activity was None
